Please respond with reported koff for every item in the list.
# studyTarget: T1, recombinant human 4R0N tau (human, UniProt P10636 2-758)
# T1 construct: also called recombinant 4R0N human tau; P10636-6
# T1 sequence (P10636 other isoform, or with tags, fused parts or gaps limits assumed): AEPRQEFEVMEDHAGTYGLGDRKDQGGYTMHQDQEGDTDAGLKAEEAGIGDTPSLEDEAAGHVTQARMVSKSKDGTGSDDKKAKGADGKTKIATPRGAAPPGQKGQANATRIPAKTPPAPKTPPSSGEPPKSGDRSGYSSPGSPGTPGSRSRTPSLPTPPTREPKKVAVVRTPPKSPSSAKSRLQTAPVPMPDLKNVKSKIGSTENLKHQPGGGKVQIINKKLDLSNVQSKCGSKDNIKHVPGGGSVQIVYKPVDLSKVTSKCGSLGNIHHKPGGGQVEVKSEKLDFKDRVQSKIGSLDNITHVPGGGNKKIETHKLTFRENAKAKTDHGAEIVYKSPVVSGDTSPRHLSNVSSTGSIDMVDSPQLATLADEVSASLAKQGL
# experimentSummary: SPR Biacore T200; antibody captured by anti-human Fc; tau as analyte; global 1:1 fit
Only the number, expressed in s⁻¹, is required.

For reference, reported koff for hu9F5VHv9/hu9F5VLv8_DIM13 (antibody, V domains shown) VH: EVQLVQSGAEVKKPGATVKISCKASGFNIKDDYMNWVQQRPGKGLEWIGWIDPENGDTEYASKFQGRATMTADTSTNTAYMELSSLRSEDTAVYYCTTSNGWGQGTLVTVSS VL: DIQMTQSPFSLPVTPGESASISCRSSKSLGHSNGITYLYWYGQKPGQSPQLLIYQGSNRASGVPNRFSSSGSGTDFTLKISRVEAEDVGVYYCAQNLELPLTFGQGTKLEIK stands at 0.000439

For reference, reported koff for hu9F5VHv9/hu9F5VLv8_DIM7 (antibody, V domains shown) VH: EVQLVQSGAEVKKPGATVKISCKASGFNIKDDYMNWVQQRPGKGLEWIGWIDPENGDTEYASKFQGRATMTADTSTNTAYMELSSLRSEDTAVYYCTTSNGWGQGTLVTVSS VL: DIQMTQSPFSLPVTPGESASISCRSSKSLDHSNGITYLYWYQQKPGQSPQLLIYQKSNRASGVPNRFSSSGSGTDFTLKISRVEAEDVGVYYCAQNIELPLTFGQGTKLEIK stands at 0.000424

For reference, reported koff for hu9F5VHv9/hu9F5VLv8_DIM15 (antibody, V domains shown) VH: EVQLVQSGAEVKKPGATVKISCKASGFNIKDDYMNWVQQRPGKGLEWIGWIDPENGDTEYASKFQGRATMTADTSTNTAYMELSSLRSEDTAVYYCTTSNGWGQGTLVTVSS VL: DIQMTQSPFSLPVTPGESASISCRSSKSLGHSNGITYLYWYGQKPGQSPQLLIYQGSNTASGVPNRFSSSGSGTDFTLKISRVEAEDVGVYYCAQNGELPLTFGQGTKLEIK stands at 0.000732

For reference, reported koff for hu9F5VHv9/hu9F5VLv8_DIM26 (antibody, V domains shown) VH: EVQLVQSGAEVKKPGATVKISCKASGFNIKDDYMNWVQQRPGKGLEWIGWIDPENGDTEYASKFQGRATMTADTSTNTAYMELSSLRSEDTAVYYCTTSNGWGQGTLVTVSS VL: DIQMTQSPFSLPVTPGESASISCRSSKSLIHSNGITYLYWYIQKPGQSPQLLIYQESNRASGVPNRFSSSGSGTDFTLKISRVEAEDVGVYYCAQNLELPLTFGQGTKLEIK stands at 0.004

For reference, reported koff for hu9F5VHv9/hu9F5VLv8_DIM12 (antibody, V domains shown) VH: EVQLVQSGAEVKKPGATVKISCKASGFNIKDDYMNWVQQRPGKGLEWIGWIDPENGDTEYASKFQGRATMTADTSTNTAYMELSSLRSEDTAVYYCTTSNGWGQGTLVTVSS VL: DIQMTQSPFSLPVTPGESASISCRSSKSLGHSNGITYLYWYGQKPGQSPQLLIYQGSNRASGVPNRFSSSGSGTDFTLKISRVEAEDVGVYYCAQNGELPLTFGQGTKLEIK stands at 0.000429
